The following compounds are listed with their measured growth values.
test system: SK-MEL-5 melanoma; test: NCI-60 one-dose screen, 48 h (100 = growth as untreated, 0 = no growth, -100 = all killed); conditions: 10 µM unless noted
Compounds without any hit were thinned out: in the full panel of roughly 83,000, 20% have a hit.
Please respond with the number in % and leave the unit unwritten.

{"compound": "Cc1cc2cc3cc(C)c(N(C)C)cc3[n+](C)c2cc1N(C)C", "unit_info": "%", "data_value": 42.1}

Prompt line: Tell me the measured growth of CC[C@@H](C)OC(=O)c1nn(C(C)=O)c2ccccc12 , please.
Response line: 94.1

* * *

Tested on: SK-MEL-5 melanoma
Test: NCI-60 one-dose screen, 48 h
Settings: 10 µM unless noted
Procedure: Growth inhibition of the SK-MEL-5 human tumor cell line is measured as a screen for anti-cancer activity. Cells are grown in 96 well plates and exposed to the test compound for 48 hours. Compounds are tested at a single concentration, which is 10^-5 M for most compounds. The reported endpoint is percent growth (GI% or GIPRCNT), where numbers from 0 - 100% represent growth inhibition, and numbers from -100% - 0 represent cell death. For example, a value of 40 represents 60% growth inhibition. […]
Compounds without any hit were thinned out: in the full panel of roughly 83,000, 20% have a hit. Active and inactive are the calls of the source. How the source made its calls: active means growth percent below 10; inactive means the rest.
Answer with one of the outcomes 1.0 = active, 0.0 = inactive

Consider the worked cases shown below.
{"molecule": "Nc1ccc(N2CCOCC2)cc1", "label_value": 0.0}
{"molecule": "Cc1cc(N/N=C/c2nc(-c3ccc(Cl)cc3)oc2C)c2cc(Br)ccc2n1", "label_value": 0.0}

Prompt line: I would be grateful if you could indicate the recorded call for CN(CC(=O)N(Cc1ccc(C2CCCCC2)cc1)c1ccc(C(=O)NO)cc1)S(=O)(=O)c1c(F)c(F)c(F)c(F)c1F .
Response line: 0.0

Prompt line: Ok, now Cc1noc(C)c1-c1cc(O)cc(C(O)c2ccccc2)c1 (stereo unspecified)
Response line: 0.0

Prompt line: Ok, now Oc1ccc2c(=S)cc(-c3ccc(Br)cc3)oc2c1O
Response line: 0.0

Prompt line: Ok, now COc1ccc2c(c1)C(=O)/C(=C/c1cccc(OCC(=O)Nc3nc4c(s3)CCCC4)c1)O2
Response line: 1.0

Prompt line: Ok, now CNc1nc(C)c(-c2nc(Nc3cccc(S(N)(=O)=O)c3)ncc2F)s1
Response line: 1.0

Prompt line: Ok, now COc1ccc(Cl)cc1Nc1nc(C(F)(F)F)ccc1C(=O)N/N=C/c1cccnc1
Response line: 0.0

Prompt line: Ok, now O=C(Cn1cc(CN2C(=O)c3ccccc3S2(=O)=O)nn1)Nc1ccc([N+](=O)[O-])cc1Cl
Response line: 0.0

Prompt line: Ok, now NC(=S)N/N=C/c1ccc(OCc2ccccc2)cc1
Response line: 0.0

Prompt line: Ok, now COc1cc(-c2c3c(nc4c2c(C)nn4-c2ccccc2)-c2ccccc2C(=O)C3=O)cc(OC)c1OC
Response line: 0.0

* * *

system: NCI-H23 lung; experiment: NCI-60 one-dose screen, 48 h; conditions: 10 µM unless noted
The panel holds about 83,000 compounds, 20% with a hit somewhere; the sample as a whole holds those more often. Activity calls are given as the source filed them. Rule for the calls: active = growth percent below 10; inactive = the rest.
Answer with one of the outcomes true (1) (active), false (0) (inactive)

Consider the worked cases shown below.
{"compound": "C=C1CC[C@@H]2[C@](C)(COC(C)=O)[C@H](OC(C)=O)CC[C@@]2(C)[C@@H]1CC(NCc1ccc(F)cc1)C1=CCOC1=O (stereo partly drawn)", "label_value": "false (0)"}
{"compound": "CN1CCN(c2ccc3nc(-c4ccc5nc(-c6ccc(OCCC(C)(C)C)cc6)[nH]c5c4)[nH]c3c2)CC1", "label_value": "true (1)"}
{"compound": "COc1cc2nc3cc([N+](=O)[O-])ccc3c(NCCCNCC(C)(C)O)c2cc1OC", "label_value": "true (1)"}
{"compound": "COc1ccc2nc3cc(Cl)ccc3c(N3CCN(c4ccnc(N5CCN(C)CC5)n4)CC3)c2c1", "label_value": "false (0)"}
{"compound": "O=C1c2ccccc2-c2nccc3cc(Cl)nc1c23", "label_value": "true (1)"}
{"compound": "C=C1CCC2C3(C)COC(c4ccc(SC)cc4)OC3CCC2(C)C1C/C=C1/C(=O)OCC1O (stereo not drawn)", "label_value": "false (0)"}
{"compound": "O=C(CO[N+](=O)[O-])Nc1ccc(C(=O)/C=C/c2ccc3c(c2)OCO3)cc1", "label_value": "false (0)"}
{"compound": "Nc1cccc(-c2nc3sccn3c2-c2ccnc(NCCCNS(=O)(=O)c3ccc(C(F)(F)F)cc3)n2)c1", "label_value": "true (1)"}
{"compound": "COC(=O)C12C3C(=O)N(c4ccc(OC)cc4)C(=O)C3C(c3cn(-c4ccccc4)nc3C)N1[C@H](c1cn(-c3ccccc3)nc1C)[C@@H]1C(=O)N(c3ccc(OC)cc3)C(=O)[C@@H]12 (stereo partly drawn)", "label_value": "false (0)"}
{"compound": "COc1nc2c(cc1S(=O)(=O)c1ccccc1)CCc1c-2cnn1-c1ccc(Cl)cc1", "label_value": "false (0)"}

Prompt line: I would be grateful if you could indicate the recorded call for O=c1c(/C=C/c2ccco2)nnc(SCCN2CCOCC2)n1/N=C/c1ccc([N+](=O)[O-])cc1 .
Response line: false (0)

Prompt line: Ok, now O=C(Nc1ccc(CN2CCOCC2)cc1)c1[nH]ncc1Nc1ncnc2sccc12
Response line: true (1)

Prompt line: Ok, now O=C(/C=C/c1cc2ccccc2[nH]c1=O)/C=C/c1cc2ccccc2[nH]c1=O
Response line: true (1)

This collection of values is drawn from PubChem BioAssay (NCI).
